Counter-ions that a name gives are not always drawn.
Measure Name: melting point

COc1ccc(N2CCOCC2)c2sc(-c3nc(-c4ccccc4)c[nH]3)nc12 [Example 15] | 226 to 233 °C
COc1ccc(C2CCOCC2)c2sc(-c3ncc[nH]3)nc12 [Example 45] | 220 to 224 °C

[in] Query: melting point; subject: COc1ccc(N2CCOCC2)c2sc(-c3nc4c([nH]3)CCCC4)nc12 (as salt: ammonium) [Example 22]
[out] 165 °C

[in] # melting point lookup, item COc1ccc(N2CCOCC2)c2sc(-c3nc4c([nH]3)CCN(C(C)=O)C4)nc12 [Example 39]
[out] 155 to 157 °C
